// provenance: ChEMBL document CHEMBL1127973

Target: Tubulin (Homo sapiens) (UniProt P68371+Q9H4B7+P0DPH7+P68366+Q13509+Q71U36+P04350+Q3ZCM7+P07437+P68363+Q9BQE3+Q6PEY2+Q13885+Q9BVA1+Q9BUF5)
Assay: Binding affinity to microtubules, activity expressed as ID50 of compound/ID50 of paclitaxel
Format: protein-complex assay
Give ID50 ratio for every item shown.
Answers are plain numbers.

CC(=O)O[C@H]1C(=O)[C@@]2(C)[C@H]([C@H](OC(=O)c3ccccc3)[C@]3(O)C[C@H](OC(=O)[C@H](O)[C@@H](NC(=O)CC(C)C)c4ccccc4)C(C)=C1C3(C)C)[C@]1(OC(C)=O)CO[C@@H]1C[C@@H]2O : 1.2
CC(=O)O[C@@]12CO[C@@H]1C[C@H](O)[C@@]1(C)C(=O)[C@H](O)C3=C(C)[C@@H](OC(=O)[C@@H](NC(=O)c4ccccc4)[C@H](O)c4ccccc4)C[C@@](O)([C@@H](OC(=O)c4ccccc4)[C@H]21)C3(C)C : 170

Quick batch: ID50 ratio for everything below.
1. CC(=O)O[C@@]12CO[C@@H]1C[C@H](O)[C@@]1(C)C(=O)[C@H](O)C3=C(C)[C@@H](OC(=O)[C@@H](O)Cc4ccccc4)C[C@@](O)([C@@H](OC(=O)c4ccccc4)[C@H]21)C3(C)C
2. CC(=O)O[C@H]1C[C@]2(C)[C@@H](O)C[C@H]3OC[C@@]3(OC(C)=O)[C@H]2[C@H](OC(=O)c2ccccc2)[C@@]2(O)C[C@H](OC(=O)[C@H](O)[C@@H](NC(=O)c3ccccc3)c3ccccc3)C(C)C1C2(C)C (some centres undefined)

-- reply
1. 3.5
2. 3
